# assay system: T1, recombinant biotinylated human PAR2 extracellular domain (residues 1-75), N-terminal AviTag, C-terminal Flag … (human, UniProt P55085 26-75, biotin on the AviTag (enzymatic biotinylation))
# T1 construct: also called Bio-human-PAR2 ECD; human PAR2 ECD; not shown: N-terminal AviTag (Avidity LLC); C-terminal Flag and poly Histidine tags
# T1 sequence (P55085 26-75): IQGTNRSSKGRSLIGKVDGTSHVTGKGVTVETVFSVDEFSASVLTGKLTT
# experiment summary: HTRF competition with Dylight650-Par0067 IgG, pH 7.4, IgG
reported endpoint: pIC50
Scale explanation: pIC50 corresponds to minus log10 of a concentration expressed in moles per litre.

PaB670159 IgG (antibody, V domains shown, IgG1-TM (L234F, L235E, P331S), human lambda light chain) VH: EVQLLESGGGLVQPGGSLRLSCAASGFTFSSYAMNWVRQAPGKGLEWVSTISYHGHHISYADSHHHRFTISRDNSKNTLYLQMNSLRAEDTAVYYCARINHDPMDVWGQGTLVTVSS VL: SIELTQPPSVSVSPGQTASITCSGDNLGKKYVQWYQQKPGQSPVLVIYDDSNRPSGIPERFSGSNSGNTATLTISGTQAMDEADYYCQTWDGHHHTGETNHFGGGTKLTVL	6.79
PaB670161 IgG (antibody, V domains shown, IgG1-TM (L234F, L235E, P331S), human lambda light chain) VH: EVQLLESGGGLVQPGGSLRLSCAASGFTFSSYAMNWVRQAPGKGLEWVSTISYSGSLISYADSVKGRFTISRDNSKNTLYLQMNSLRAEDTAVYYCARIHHDPMDVWGQGTLVTVSS VL: SIELTQPPSVSVSPGQTASITCSGDNLGKKYVQWYQQKPGQSPVLVIYDDSNRPSGIPERFSGSNSGNTATLTISGTQAMDEADYYCHTWDGHHTTGETNHFGGGTKLTVL	7.32
PaB670143 IgG (antibody, V domains shown, IgG1-TM (L234F, L235E, P331S), human lambda light chain) VH: EVQLLESGGGLVQPGGSLRLSCAASGFTFSSYAMNWVRQAPGKGLEWVSTISYHGHHISYADSHHHRFTISRDNSKNTLYLQMNSLRAEDTAVYYCARINNDPMDVWGQGTLVTVSS VL: SIELTQPPSVSVSPGQTASITCSGDNLGKKYVQWYQQKPGQSPVLVIYDDSNRPSGIPERFSGSNSGNTATLTISGTQAMDEADYYCQTWDGNPTHGETNVFGGGTKLTVL	8.47
PaB670084 IgG (antibody, V domains shown, IgG1-TM (L234F, L235E, P331S), human lambda light chain; also called ZZ1PXA-A05) VH: EVQLLESGGGLVQPGGSLRLSCAASGFTFSSYAMNWVRQAPGKGLEWVSTISHSGHLIHHADSHKGRFTISRDNSKNTLYLQMNSLRAEDTAVYYCARINNDPMDVWGQGTLVTVSS VL: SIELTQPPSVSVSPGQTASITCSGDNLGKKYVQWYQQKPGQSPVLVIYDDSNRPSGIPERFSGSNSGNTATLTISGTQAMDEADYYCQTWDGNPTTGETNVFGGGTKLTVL	7.99

Answer with reported pIC50 of PaB670151 IgG (antibody, V domains shown, IgG1-TM (L234F, L235E, P331S), human lambda light chain) VH: EVQLLESGGGLVQPGGSLRLSCAASGFTFSSYAMNWVRQAPGKGLEWVSTISYSGSLISYADSVKGRFTISRDNSKNTLYLQMNSLRAEDTAVYYCARINHDPMDVWGQGTLVTVSS VL: SIELTQPPSVSVSPGQTASITCSGDNLGKKYVQWYQQKPGQSPVLVIYDDSNRPSGIPERFSGSNSGNTATLTISGTQAMDEADYYCHTWDHHHTTGEHNVFGGGTKLTVL
7.16
